In this section we review reported Plant response rating, Sedge, Umbrella values for a set of compounds.
Tested on: sedge, umbrella (small-flower umbrella sedge, Cyperus difformis)
assayInfo: Test B flooded paddy test, plant response rating 0-100
Assay type: in vivo
conditionNotes: Flood, 250 g ai/ha; scale 0 to 100 (0 no effect, 100 complete control); 13 to 15 days
readoutType: Plant response rating, Sedge, Umbrella

compound	experimentalTarget	readoutValue
N#CCn1cc(C(=O)c2ccccc2)c(-c2cc(Cl)cc(Cl)c2)n1 [Compound 43]	sedge, umbrella (small-flower umbrella sedge, Cyperus difformis)	0
CCn1cc(C(=O)c2cccnc2)c(-c2cc(Cl)cc(Cl)c2)n1 [Compound 7]	sedge, umbrella (small-flower umbrella sedge, Cyperus difformis)	0
Cn1cc(C(=O)c2ccccc2)c(-c2cc(Br)cc(Br)c2)n1 [Compound 53]	sedge, umbrella (small-flower umbrella sedge, Cyperus difformis)	40
O=C(c1ccccc1)c1cn(CC2CC2)nc1-c1cc(Cl)cc(Cl)c1 [Compound 41]	sedge, umbrella (small-flower umbrella sedge, Cyperus difformis)	30
O=C(c1ccccc1)c1cn(CO)nc1-c1cc(Cl)cc(Cl)c1 [Compound 15]	sedge, umbrella (small-flower umbrella sedge, Cyperus difformis)	0
O=C(c1ccccc1)c1cn(S(=O)(=O)CCl)nc1-c1cc(Cl)cc(Cl)c1 [Compound 1]	sedge, umbrella (small-flower umbrella sedge, Cyperus difformis)	0
Fc1ccccc1NN=C(c1ccccc1)c1c[nH]nc1-c1cc(Cl)cc(Cl)c1 [Compound 57]	sedge, umbrella (small-flower umbrella sedge, Cyperus difformis)	75
O=C(c1cncc(F)c1)c1c[nH]nc1-c1cc(F)cc(Cl)c1 [Compound 22]	sedge, umbrella (small-flower umbrella sedge, Cyperus difformis)	0
CCn1cc(C(=O)c2ccccc2)c(-c2cc(Cl)c(Cl)c(Cl)c2)n1 [Compound 12]	sedge, umbrella (small-flower umbrella sedge, Cyperus difformis)	70
Fc1ccc(NN=C(c2ccccc2)c2c[nH]nc2-c2cc(Cl)cc(Cl)c2)cc1 [Compound 35]	sedge, umbrella (small-flower umbrella sedge, Cyperus difformis)	0
CCOC(OCC)(c1ccccc1)c1c[nH]nc1-c1cc(Cl)cc(Cl)c1 [Compound 14]	sedge, umbrella (small-flower umbrella sedge, Cyperus difformis)	0
Cn1cc(C(=O)c2cccnc2)c(-c2cc(Cl)cc(Cl)c2)n1 [Compound 6]	sedge, umbrella (small-flower umbrella sedge, Cyperus difformis)	0

====

Tested on: velvetleaf (Abutilon theophrasti)
assayInfo: Test A pre-/postemergence greenhouse herbicide test, visual injury rating 0-100
Format: in vivo
conditionNotes: Postemergence, 1000 g ai/ha
The following molecules are shown together with reported Plant response rating (0 to 100 scale), Velvetleaf values.
readoutType: Plant response rating (0 to 100 scale), Velvetleaf

molecule	readoutValue
CCn1cc(C(=O)c2ccccc2)c(-c2cc(F)cc(Cl)c2)n1 [Compound 46]	90
CON=C(c1ccccc1)c1c[nH]nc1-c1cc(Br)cc(Br)c1 [Compound 29]	90
O=C(c1ccccc1)c1cn(CC(F)F)nc1-c1cc(F)cc(Cl)c1 [Compound 40]	0
Clc1cccc(NN=C(c2ccccc2)c2c[nH]nc2-c2cc(Cl)cc(Cl)c2)c1 [Compound 56]	90
Clc1cc(Cl)cc(-c2n[nH]cc2C(=NN2CCOCC2)c2ccccc2)c1 [Compound 55]	100

====

Form field: Plant response rating, Ragweed (one value per entry).
Test system: ragweed (common ragweed, Ambrosia elatior)
assayInfo: Test C pre-/postemergence greenhouse test, plant response rating 0-100
Assay type: in vivo
conditionNotes: Postemergence, 500 g ai/ha; scale 0 to 100
Description: […]

smilesInput	Plant response rating, Ragweed
Cn1cc(C(=O)c2ccccc2)c(-c2cc(Br)cc(Br)c2)n1	10
O=Cn1cc(C(=O)c2ccccc2)c(-c2cc(Cl)cc(Cl)c2)n1	85
Clc1cc(Cl)cc(-c2n[nH]cc2C(=NNc2ccccc2Cl)c2ccccc2)c1	95
Fc1ccc(NN=C(c2ccccc2)c2c[nH]nc2-c2cc(Cl)cc(Cl)c2)cc1	55
CCOC(OCC)(c1cccs1)c1c[nH]nc1-c1cc(Cl)cc(Cl)c1	75

====

System: pigweed (Amaranthus retroflexus)
assayInfo: Test A pre-/postemergence greenhouse herbicide test, visual injury rating 0-100
Assay type: in vivo
conditionNotes: Postemergence, 1000 g ai/ha
readoutType: Plant response rating (0 to 100 scale), Pigweed

smilesInput	experimentalTarget	readoutValue
N=C(c1ccccc1)c1c[nH]nc1-c1cc(F)cc(F)c1	pigweed (Amaranthus retroflexus)	80
CCn1cc(C(=O)c2ccccc2)c(-c2cc(F)cc(C(F)(F)F)c2)n1	pigweed (Amaranthus retroflexus)	90
Cn1cc(C(=O)c2ccccc2)c(-c2cc(Br)cc(Br)c2)n1	pigweed (Amaranthus retroflexus)	100
CON=C(c1ccccc1)c1c[nH]nc1-c1cc(Cl)cc(Cl)c1	pigweed (Amaranthus retroflexus)	80
Clc1cc(Cl)cc(-c2n[nH]cc2C(=NN2CCCCC2)c2ccccc2)c1	pigweed (Amaranthus retroflexus)	90
Clc1cc(Cl)cc(-c2n[nH]cc2C(=NN2CCOCC2)c2ccccc2)c1	pigweed (Amaranthus retroflexus)	100
N=C(c1ccccc1)c1c[nH]nc1-c1cc(Cl)cc(Cl)c1	pigweed (Amaranthus retroflexus)	100
Clc1cccc(NN=C(c2ccccc2)c2c[nH]nc2-c2cc(Cl)cc(Cl)c2)c1	pigweed (Amaranthus retroflexus)	90
Brc1cc(Br)cc(-c2n[nH]cc2C2(c3ccccc3)SCCS2)c1	pigweed (Amaranthus retroflexus)	100
Clc1cc(Cl)cc(-c2n[nH]cc2C(=NNc2ccccc2)c2ccccc2)c1	pigweed (Amaranthus retroflexus)	100
O=C(c1ccccc1)c1cn(CC(F)F)nc1-c1cc(F)cc(Cl)c1	pigweed (Amaranthus retroflexus)	40

====

System: lambsquarters (Chenopodium album)
assayInfo: Test C pre-/postemergence greenhouse test, plant response rating 0-100
Assay type: in vivo
conditionNotes: Postemergence, 125 g ai/ha
readoutType: Plant response rating (0 to 100), Lambsquarters

smilesInput	readoutValue
Fc1cccc(NN=C(c2ccccc2)c2c[nH]nc2-c2cc(Cl)cc(Cl)c2)c1	100
Cn1cc(C(=O)c2cccs2)c(-c2cc(Cl)cc(Cl)c2)n1	55
Clc1cc(Cl)cc(-c2n[nH]cc2C(=NNc2ccccc2Cl)c2ccccc2)c1	50
Cn1cc(C(=O)c2ccccc2)c(-c2cc(Br)cc(Br)c2)n1	30

====

Test system: pigweed (Amaranthus retroflexus)
assayInfo: Test A pre-/postemergence greenhouse herbicide test, visual injury rating 0-100
Assay type: in vivo
conditionNotes: Preemergence, 125 g ai/ha
readoutType: Pigweed plant response rating (0 = no effect, 100 = complete control)

smilesInput	readoutValue
CCOC(OCC)(c1ccccc1)c1c[nH]nc1-c1cc(Cl)cc(Cl)c1	70
COC(OC)(c1ccccc1)c1c[nH]nc1-c1cc(Cl)cc(Cl)c1	70
CCn1cc(C(=NN2CCCC2)c2ccccc2)c(-c2cc(Cl)cc(Cl)c2)n1	40
COCC(=O)n1cc(C(=O)c2ccccc2)c(-c2cc(Cl)cc(Cl)c2)n1	60
CCn1cc(C(=O)c2cccnc2)c(-c2cc(Cl)cc(Cl)c2)n1	20

====

Tested on: soybean (Glycine max)
assayInfo: Test C pre-/postemergence greenhouse test, plant response rating 0-100
Type: in vivo
conditionNotes: Postemergence, 62 g ai/ha
readoutType: Plant response rating (0 to 100), Soybean

smilesInput	readoutValue
Clc1cc(Cl)cc(-c2n[nH]cc2C(=NNc2ccccc2Cl)c2ccccc2)c1	0
Cn1cc(C(=O)c2cccs2)c(-c2cc(Cl)cc(Cl)c2)n1	0
Fc1ccccc1NN=C(c1ccccc1)c1c[nH]nc1-c1cc(Cl)cc(Cl)c1	0
C=CCn1cc(C(=O)c2ccccc2)c(-c2cc(Cl)cc(Cl)c2)n1	5
Cn1cc(C(=NN2CCCC2)c2ccccc2)c(-c2cc(Cl)c(Cl)c(Cl)c2)n1	0

====

Tested on: velvetleaf (Abutilon theophrasti)
assayInfo: Test A pre-/postemergence greenhouse herbicide test, visual injury rating 0-100
Format: in vivo
conditionNotes: Abutilon theophrasti, pre-emergence, 240 h; Preemergence, 500 g ai/ha; read-out: Plant response rating (0 to 100 scale), Velvetleaf
readoutType: pest or weed control at 500 g/ha (%)

smilesInput	experimentalTarget	readoutType	readoutValue
COCC(=O)n1cc(C(=O)c2ccccc2)c(-c2cc(Cl)cc(Cl)c2)n1	velvetleaf (Abutilon theophrasti)	pest or weed control at 500 g/ha	80
CCCn1cc(C(=O)c2ccccc2)c(-c2cc(Cl)cc(Cl)c2)n1	velvetleaf (Abutilon theophrasti)	pest or weed control at 500 g/ha	40
COC(OC)(c1ccccc1)c1c[nH]nc1-c1cc(Cl)cc(Cl)c1	velvetleaf (Abutilon theophrasti)	pest or weed control at 500 g/ha	70
O=C(c1ccccc1)c1cn(CO)nc1-c1cc(Cl)cc(Cl)c1	velvetleaf (Abutilon theophrasti)	pest or weed control at 500 g/ha	90

====

Tested on: giant foxtail (Setaria faberii)
assayInfo: Test C pre-/postemergence greenhouse test, plant response rating 0-100
Assay type: in vivo
conditionNotes: Postemergence, 500 g ai/ha; scale 0 to 100
Recorded measurements of Plant response rating, Foxtail, Giant, one per entry
readoutType: Plant response rating, Foxtail, Giant

smilesInput	experimentalTarget	readoutValue
Cn1cc(C(=O)c2cccs2)c(-c2cc(Cl)cc(Cl)c2)n1	giant foxtail (Setaria faberii)	10
CCOC(OCC)(c1cccs1)c1c[nH]nc1-c1cc(Cl)cc(Cl)c1	giant foxtail (Setaria faberii)	0
Cn1cc(C(=O)c2ccccc2)c(-c2cc(Br)cc(Br)c2)n1	giant foxtail (Setaria faberii)	10
O=C(c1ccccc1)c1cn(S(=O)(=O)CC(F)(F)F)nc1-c1cc(Cl)cc(Cl)c1	giant foxtail (Setaria faberii)	0
